From: ChEMBL document CHEMBL1145296

clearance reference
Assay: Clearance in dog at 0.25 mg/kg, iv
Type: ADME, organism-based, Canis lupus familiaris
Design: dose 0.25 mg/kg, route intravenous
Details: in vivo

molecular.string	measurement.units	clearance
O=c1[nH]c2ccc(-c3cn[nH]c3)cc2cc1-c1cc2cc(CN3CCC(F)CC3)ccc2[nH]1	mL/min/kg	22
O=c1[nH]c2ccc(-c3cn[nH]c3)cc2cc1-c1cc2cc(CN3CCOCC3)ccc2[nH]1	mL/min/kg	34
COCC(=O)N1CCN(Cc2ccc3[nH]c(-c4cc5cc(-c6cn[nH]c6)ccc5[nH]c4=O)cc3c2)CC1	mL/min/kg	23
CC(=O)N1CCN(Cc2ccc3[nH]c(-c4cc5cc(-c6cn[nH]c6)ccc5[nH]c4=O)cc3c2)CC1	mL/min/kg	27
O=c1[nH]c2ccc(-c3cn[nH]c3)cc2cc1-c1cc2cc(CN3CCCCC3)ccc2[nH]1	mL/min/kg	30
CC(=O)N1CCN(Cc2ccc3[nH]c(-c4cc5cc(-c6cnn(C)c6)ccc5[nH]c4=O)cc3c2)CC1	mL/min/kg	6.5

* * *

pIC50 reference
Biological target: Serine/threonine-protein kinase Chk1 (Homo sapiens, UniProt O14757)
Assay: Inhibition of human CHEK1
pIC50: −log10 of the molar value.

molecular.string	target	pIC50
N#Cc1ccc2[nH]c(=O)c(-c3cc4cc(CN5CCC(CN)CC5)ccc4[nH]3)cc2c1	Serine/threonine-protein kinase Chk1 (Homo sapiens, UniProt O14757)	8.40
N#Cc1ccc2[nH]c(=O)c(-c3cc4cc(CN5CCCCC5)ccc4[nH]3)cc2c1	Serine/threonine-protein kinase Chk1 (Homo sapiens, UniProt O14757)	8.34
O=c1[nH]c2ccc(Br)cc2cc1-c1cc2cc(CN3CCCCC3)ccc2[nH]1	Serine/threonine-protein kinase Chk1 (Homo sapiens, UniProt O14757)	8.54
Cn1cc(-c2ccc3[nH]c(=O)c(-c4cc5cc(CN6CCCCC6)ccc5[nH]4)cc3c2)cn1	Serine/threonine-protein kinase Chk1 (Homo sapiens, UniProt O14757)	8.96
O=c1[nH]c2ccc(-c3cccc(O)c3)cc2cc1-c1cc2cc(CN3CCCCC3)ccc2[nH]1	Serine/threonine-protein kinase Chk1 (Homo sapiens, UniProt O14757)	7.54

* * *

Assay: Half life in dog at 0.25 mg/kg, iv
Format: ADME, organism-based, Canis lupus familiaris
Set-up: dose 0.25 mg/kg, route intravenous
Conditions: in vivo
half-life reference

molecular.string	half-life / h
O=c1[nH]c2ccc(-c3cn[nH]c3)cc2cc1-c1cc2cc(CN3CCCCC3)ccc2[nH]1	4.4
CC(=O)N1CCN(Cc2ccc3[nH]c(-c4cc5cc(-c6cn[nH]c6)ccc5[nH]c4=O)cc3c2)CC1	1.5
O=c1[nH]c2ccc(-c3cn[nH]c3)cc2cc1-c1cc2cc(CN3CCC(F)CC3)ccc2[nH]1	2.5
COCC(=O)N1CCN(Cc2ccc3[nH]c(-c4cc5cc(-c6cn[nH]c6)ccc5[nH]c4=O)cc3c2)CC1	2
O=c1[nH]c2ccc(-c3cn[nH]c3)cc2cc1-c1cc2cc(CN3CCOCC3)ccc2[nH]1	2
CC(=O)N1CCN(Cc2ccc3[nH]c(-c4cc5cc(-c6cnn(C)c6)ccc5[nH]c4=O)cc3c2)CC1	4.1

* * *

Molecular target: Serine/threonine-protein kinase Chk1 (Homo sapiens, UniProt O14757)
Sequence (O14757 whole entry): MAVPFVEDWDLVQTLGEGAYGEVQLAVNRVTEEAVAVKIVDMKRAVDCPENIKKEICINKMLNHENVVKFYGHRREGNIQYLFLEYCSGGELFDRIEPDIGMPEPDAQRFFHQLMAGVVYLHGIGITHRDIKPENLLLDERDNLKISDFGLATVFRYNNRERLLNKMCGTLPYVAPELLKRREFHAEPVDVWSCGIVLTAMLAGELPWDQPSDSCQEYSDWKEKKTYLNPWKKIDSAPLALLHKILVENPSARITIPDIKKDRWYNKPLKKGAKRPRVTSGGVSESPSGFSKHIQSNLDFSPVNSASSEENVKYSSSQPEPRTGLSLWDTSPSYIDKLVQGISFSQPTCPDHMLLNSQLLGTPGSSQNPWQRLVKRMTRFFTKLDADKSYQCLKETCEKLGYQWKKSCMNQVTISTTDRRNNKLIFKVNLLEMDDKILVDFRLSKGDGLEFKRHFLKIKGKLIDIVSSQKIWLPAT
IC50 reference

molecular.string	measurement.units	IC50
O=c1[nH]c2ccccc2cc1-c1cc2ccccc2[nH]1	nM	1000
O=c1[nH]c2ccc(-c3cnsc3)cc2cc1-c1cc2cc(CN3CCCCC3)ccc2[nH]1	nM	0.64
N#Cc1ccc2cc(-c3cc4cc(CN5CCC(CN)CC5)ccc4[nH]3)c(=O)[nH]c2c1	nM	190
